The following molecules are listed with their measured pIC50 values.
- system: USP28 (His-tagged USP28-FL-mammalian) (Homo sapiens)
- Construct: Expression of USP28 (1-1077)-TEV-6*His (pTT5 vector); made in house; host or cells: Expi293f cells (pTT5 vector)
- Sequence (Q96RU2 1-1077): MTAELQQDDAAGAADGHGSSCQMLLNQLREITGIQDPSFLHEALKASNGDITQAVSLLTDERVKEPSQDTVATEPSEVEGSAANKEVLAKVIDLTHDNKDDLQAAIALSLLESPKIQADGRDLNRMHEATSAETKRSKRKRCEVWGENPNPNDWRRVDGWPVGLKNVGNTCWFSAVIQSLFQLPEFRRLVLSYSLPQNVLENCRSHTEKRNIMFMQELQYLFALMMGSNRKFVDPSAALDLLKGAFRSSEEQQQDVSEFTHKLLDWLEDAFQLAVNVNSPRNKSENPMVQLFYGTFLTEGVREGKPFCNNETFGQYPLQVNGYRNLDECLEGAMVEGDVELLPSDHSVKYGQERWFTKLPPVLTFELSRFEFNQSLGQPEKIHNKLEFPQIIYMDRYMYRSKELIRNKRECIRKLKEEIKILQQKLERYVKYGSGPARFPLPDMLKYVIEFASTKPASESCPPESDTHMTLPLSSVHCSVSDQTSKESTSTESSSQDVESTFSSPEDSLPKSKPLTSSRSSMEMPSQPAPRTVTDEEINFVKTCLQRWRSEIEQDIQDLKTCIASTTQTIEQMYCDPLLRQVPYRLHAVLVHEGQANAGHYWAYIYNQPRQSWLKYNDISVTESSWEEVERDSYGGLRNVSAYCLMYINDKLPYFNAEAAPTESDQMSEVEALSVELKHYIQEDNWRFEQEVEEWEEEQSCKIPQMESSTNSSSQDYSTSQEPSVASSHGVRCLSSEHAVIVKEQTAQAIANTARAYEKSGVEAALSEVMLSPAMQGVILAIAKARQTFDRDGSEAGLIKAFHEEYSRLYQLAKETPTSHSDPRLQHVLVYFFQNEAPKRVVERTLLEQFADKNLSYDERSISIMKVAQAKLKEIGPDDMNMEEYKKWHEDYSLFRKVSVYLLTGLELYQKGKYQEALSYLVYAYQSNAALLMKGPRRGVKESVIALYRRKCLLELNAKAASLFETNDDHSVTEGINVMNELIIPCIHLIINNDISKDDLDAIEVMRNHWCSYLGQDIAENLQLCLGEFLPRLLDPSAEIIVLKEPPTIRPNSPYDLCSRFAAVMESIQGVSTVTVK
- experimental_protocol: Ubiquitin-Rhodamine 110 Assay for USP28 Activity, Example A-1(a)
- Type: biochemical
- condition_set: Ubiquitin-Rhodamine 110 assay, Example A-1(a); read-out: USP28 A-1(a) IC50 range
pIC50: −log10 of the molar value.

Indicate the recorded pIC50 value for this molecule: Cc1ccc2c(N)c(C(=O)N[C@H]3COc4cc(N5CCC[C@@H]6CNC[C@@H]65)ccc4C3)sc2n1 [Example 242] 7.30 to 9.00

Indicate the recorded pIC50 value for this molecule: Cc1ccc2c(N)c(C(=O)N[C@H]3COc4cc(O[C@H]5COC6(CNC6)C5)ccc4C3)sc2n1 (single isomer, unassigned) [Example 9-2] 7.30 to 9.00

###

- system: USP25 (USP25-His6, Boston Biochem E-546) (Homo sapiens)
- Construct: His6; purchased Boston Biochem E-546
- Sequence (Q9UHP3 whole entry): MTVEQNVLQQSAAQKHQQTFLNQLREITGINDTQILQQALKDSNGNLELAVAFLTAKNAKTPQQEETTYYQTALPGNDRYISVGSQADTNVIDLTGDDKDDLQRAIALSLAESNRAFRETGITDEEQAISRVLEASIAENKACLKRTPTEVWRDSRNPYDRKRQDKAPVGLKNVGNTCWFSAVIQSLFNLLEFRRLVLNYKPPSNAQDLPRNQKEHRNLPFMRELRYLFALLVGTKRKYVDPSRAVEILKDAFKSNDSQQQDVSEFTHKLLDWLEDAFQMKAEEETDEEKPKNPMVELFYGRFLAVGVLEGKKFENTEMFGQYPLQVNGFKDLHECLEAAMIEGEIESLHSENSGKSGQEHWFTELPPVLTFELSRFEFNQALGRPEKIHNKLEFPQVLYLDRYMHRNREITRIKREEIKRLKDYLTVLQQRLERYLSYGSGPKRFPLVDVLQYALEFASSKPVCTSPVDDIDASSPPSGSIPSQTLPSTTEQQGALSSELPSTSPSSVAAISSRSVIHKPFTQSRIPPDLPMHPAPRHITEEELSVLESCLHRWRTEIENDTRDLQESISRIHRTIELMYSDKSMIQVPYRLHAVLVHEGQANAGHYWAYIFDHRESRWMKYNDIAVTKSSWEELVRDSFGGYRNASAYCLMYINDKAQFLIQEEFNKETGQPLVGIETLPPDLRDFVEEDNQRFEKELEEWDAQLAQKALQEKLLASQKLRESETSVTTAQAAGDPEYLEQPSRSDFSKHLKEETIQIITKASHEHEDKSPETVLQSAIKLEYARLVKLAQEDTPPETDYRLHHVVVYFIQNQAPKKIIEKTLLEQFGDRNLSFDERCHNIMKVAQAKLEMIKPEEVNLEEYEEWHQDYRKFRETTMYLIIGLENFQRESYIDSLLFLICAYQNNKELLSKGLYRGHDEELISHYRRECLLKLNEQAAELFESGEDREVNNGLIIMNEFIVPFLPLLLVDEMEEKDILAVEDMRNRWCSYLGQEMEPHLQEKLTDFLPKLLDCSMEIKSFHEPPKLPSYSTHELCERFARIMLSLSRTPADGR
- experimental_protocol: Ubiquitin-Rhodamine 110 Assay for USP25 Activity, Example A-2
- Type: biochemical
- condition_set: Ubiquitin-Rhodamine 110 assay, Example A-2; read-out: USP25 A-2 IC50 range
- Experimental: The assay was performed in a final volume of 9 μL in assay buffer containing 20 mM Tris-HCl (pH 8.0, (1M Tris-HCl, pH 8.0 solution; Corning 46-031-CM)), 3 mM BME (2-Mercaptoethanol; Sigma 63689-25ML-F), 0.03% BGG (0.22 μM filtered, Sigma, G7516-25G), and 0.01% Triton X-100 (Sigma, T9284-10L). […] Fluorescence was read on the Envision (Excitation at 485 nm and Emission at 535 nm; Perkin Elmer) or on the PheraSTAR (Excitation at 485 nm and Emission at 535 nm; BMG Labtech). […]
readout_type: IC50

Examples with answers:
>  <compound>
Cc1ccc2c(N)c(C(=O)N[C@H]3COc4cc([C@@H]5CCNC[C@H]5F)ccc4C3)sc2n1

>  <system>
USP25 (USP25-His6, Boston Biochem E-546) (Homo sapiens)

>  <IC50>
50 to 200 nM

$$$$
>  <compound>
COC[C@@H]1CN(c2ccc3c(n2)CC[C@H](NC(=O)c2sc4nc(C)ccc4c2N)C3)C[C@H]1N

>  <system>
USP25 (USP25-His6, Boston Biochem E-546) (Homo sapiens)

>  <IC50>
> 2000 nM

$$$$
>  <compound>
Cc1ccc2c(N)c(C(=O)N[C@H]3COc4cc(N5CC6(C5)OCC[C@H]6N)ccc4C3)sc2n1

>  <system>
USP25 (USP25-His6, Boston Biochem E-546) (Homo sapiens)

>  <IC50>
200 to 2000 nM

$$$$
>  <compound>
CO[C@H]1CN(c2cc(F)c3c(c2C#N)OC[C@H](NC(=O)c2sc4nc(C)cnc4c2N)C3)C[C@@H]1N

>  <system>
USP25 (USP25-His6, Boston Biochem E-546) (Homo sapiens)

>  <IC50>
> 2000 nM

$$$$
>  <compound>
Cc1ccc2c(N)c(C(=O)N[C@H]3COc4cc(N5C[C@@H](N)C6(COC6)C5)ccc4C3)sc2n1

>  <system>
USP25 (USP25-His6, Boston Biochem E-546) (Homo sapiens)

>  <IC50>
200 to 2000 nM

$$$$

Indicate the recorded IC50 value for this compound: Cc1cnc2c(N)c(C(=O)N[C@H]3CCc4cc(N5CC6CCC(C5)N6)ccc4C3)sc2n1 (single isomer, unassigned) 200 to 2000 nM

Indicate the recorded IC50 value for this compound: Cc1cnc2c(N)c(C(=O)N[C@H]3CCc4cc(N5CCNC[C@@H](O)C5)ccc4C3)sc2n1 (single isomer, unassigned) 200 to 2000 nM

Indicate the recorded IC50 value for this compound: O=C(N[C@H]1COc2cc(N3CC4CCC(C3)N4)ccc2C1)c1cnc2c(c1)CCCO2 > 2000 nM

Indicate the recorded IC50 value for this compound: Cc1ccc2c(N)c(C(=O)N[C@@H]3Cc4ccc(N5CCNCC5)nc4[C@@H](C)C3)sc2n1 (single isomer, unassigned) > 2000 nM

Indicate the recorded IC50 value for this compound: Cc1ccc2c(N)c(C(=O)N[C@H]3COc4cc(N5CCNCC5)cc(F)c4C3)sc2n1 50 to 200 nM

Indicate the recorded IC50 value for this compound: Cc1ccc2c(N)c(C(=O)N[C@H]3COc4c(ccc(N5CC6CCC(C5)N6)c4F)C3)sc2n1 50 to 200 nM

Indicate the recorded IC50 value for this compound: Cc1ccc2c(N)c(C(=O)N[C@H]3COc4nc(N5C[C@H](OC(C)C)[C@@H](N)C5)ccc4C3)sc2n1 > 2000 nM

Indicate the recorded IC50 value for this compound: Cc1ccc2c(N)c(C(=O)N[C@H]3COc4cc(N5CC[C@@H]6CC[C@@H](N)C[C@@H]65)ccc4C3)sc2n1 1 to 50 nM

Indicate the recorded IC50 value for this compound: Cc1cnc2c(N)c(C(=O)N[C@@H]3CCc4cc(N5CCCNCC5)ccc4C3)sc2n1 > 2000 nM

###

- system: USP28 (His-tagged USP28-FL-mammalian) (Homo sapiens, UniProt Q96RU2)
- Construct: Expression of USP28 (1-1077)-TEV-6*His (pTT5 vector); made in house; host or cells: Expi293f cells (pTT5 vector)
- experimental_protocol: Ubiquitin-Rhodamine 110 Assay for USP28 Activity, Example A-1(a)
- Format: biochemical
- condition_set: Ubiquitin-Rhodamine 110 assay, Example A-1(a); read-out: USP28 A-1(a) IC50 range
pIC50: −log10 of the molar value.
The following compounds are listed with their measured pIC50 values.

>  <chem_smiles>
Cc1ccc2c(N)c(C(=O)N[C@H]3COc4cc(N5CCC(C(=O)O)CC5)ccc4C3)sc2n1

>  <pIC50>
5.70 to 6.70

$$$$
>  <chem_smiles>
Cc1ccc2c(N)c(C(=O)N[C@H]3CCc4nc(N5C[C@@H](N)[C@H](C(F)(F)F)C5)ccc4C3)sc2n1

>  <pIC50>
6.70 to 7.30

$$$$
>  <chem_smiles>
Cc1ccc2c(N)c(C(=O)N[C@H]3CCc4nc(N5CC6CC(C5)N6)ccc4C3)sc2n1

>  <pIC50>
5.70 to 6.70

$$$$
>  <chem_smiles>
Cc1ccc2c(N)c(C(=O)N[C@H]3COc4cc(N5CCC(F)(F)CC5)ccc4C3)sc2n1

>  <pIC50>
7.30 to 9.00

$$$$
>  <chem_smiles>
CCO[C@H]1CN(c2cc3c(cn2)C[C@@H](NC(=O)c2sc4nc(C)ccc4c2N)CO3)C[C@@H]1N

>  <pIC50>
7.30 to 9.00

$$$$
>  <chem_smiles>
Cc1ccc2c(N)c(C(=O)N[C@H]3COc4cc(N5CC[C@H]6CC[C@H](N)C[C@H]65)ccc4C3)sc2n1

>  <pIC50>
7.30 to 9.00

$$$$

We next turn to a different compound, shown below.
Indicate the recorded pIC50 value for this compound: Cc1cc(C)c2c(N)c(C(=O)N[C@H]3COc4cc(N5CCNCC5)c(F)c(F)c4C3)sc2n1 < 5.70
